protocol.notes: The drug is tested on the gut metagenome community of A-06 with ENA study accession number: PRJEB31790 for biotransformation under microaerobic condition. The drug concentrations were measured over 7 timepoints collected between 0 and 12 hours of incubation by liquid-chromatography-coupled mass spectrometry (LC–MS)
Format: ADME
Design: dose 5 uM, timepoint 0, 0.75, 1.5, 3, 6, 9, 12 hours
conditions: 5 µM
quantity: Bacterial Biotransformation

>>> value_reported("CNC(=C[N+](=O)[O-])NCCSCc1ccc(CN(C)C)o1")
"Compound metabolized"
>>> value_reported("Cn1cnc([N+](=O)[O-])c1Sc1ncnc2nc[nH]c12")
"Compound metabolized"
>>> value_reported("CCC(C)(C)C(=O)O[C@H]1C[C@@H](C)C=C2C=C[C@H](C)[C@H](CC[C@@H]3C[C@@H](O)CC(=O)O3)[C@H]21")
"Compound NOT metabolized"
>>> value_reported("CCOc1nc2cccc(C(=O)O)c2n1Cc1ccc(-c2ccccc2-c2nnn[nH]2)cc1")
"Compound NOT metabolized"
